# testedSystem: Neu5Ac(a2-3)Gal(b1-4)GlcNAc(b1-2)Man(a1-3)[Neu5Ac(a2-6)Gal(b1-4)GlcNAc(b1-2)Man(a1-6)]Man(b1-4)GlcNAc(b1-4)GlcNAc
# procedureDetails: glycan array binding signal (z-score within array); higher = stronger binding
# conditionDescription: glycan notation: IUPAC condensed, linker removed
Shown is part of a subset that was picked to be rich in the strongest signals.
reportedProperty: glycan array binding signal (z-score)
Just the number.

query: Form field: reported glycan array binding signal (z-score) of OGAA (protein) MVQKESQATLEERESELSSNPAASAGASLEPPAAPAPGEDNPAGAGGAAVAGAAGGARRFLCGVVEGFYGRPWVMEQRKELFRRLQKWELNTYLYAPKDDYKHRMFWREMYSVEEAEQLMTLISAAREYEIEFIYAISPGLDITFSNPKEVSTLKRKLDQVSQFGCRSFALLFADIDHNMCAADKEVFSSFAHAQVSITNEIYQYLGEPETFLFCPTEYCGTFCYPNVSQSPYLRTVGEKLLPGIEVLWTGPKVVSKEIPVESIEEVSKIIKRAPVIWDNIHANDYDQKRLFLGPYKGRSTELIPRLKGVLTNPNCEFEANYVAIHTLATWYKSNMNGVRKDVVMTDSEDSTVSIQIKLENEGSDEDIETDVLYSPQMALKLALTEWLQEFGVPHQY
result: -0.118
